test system: KARPAS-422; assay: cells; format: functional, cell-based, Homo sapiens; conditions: Homo sapiens, KARPAS-422
Description: SANGER: Inhibition of human KARPAS-422 cell growth in a cell viability assay.
Task for the reader: assign each of the following compounds its reported IC50.

The recorded IC50 with KARPAS-422 for COc1cc2ncn(-c3cc(OCc4ccccc4C(F)(F)F)c(C(N)=O)s3)c2cc1OC [GW843682X] was 210 nM

The recorded IC50 with KARPAS-422 for `Cc1cc([N+](=O)[O-])ccc1NS(=O)(=O)c1cc(Cl)ccc1Cl` was 8260 nM

The recorded IC50 with KARPAS-422 for CC(=O)O[C@H]1C(=O)[C@@]2(C)[C@H]([C@H](OC(=O)c3ccccc3)[C@]3(O)C[C@H](OC(=O)[C@H](O)[C@@H](NC(=O)c4ccccc4)c4ccccc4)C(C)=C1C3(C)C)[C@]1(OC(C)=O)CO[C@@H]1C[C@@H]2O [PACLITAXEL] was 56.5 nM

The recorded IC50 with KARPAS-422 for COc1cccc2c1C(=O)c1c(O)c3c(c(O)c1C2=O)C[C@@](O)(C(=O)CO)C[C@@H]3O[C@H]1C[C@H](N)[C@H](O)[C@H](C)O1 [DOXORUBICIN] was 193 nM

The recorded IC50 with KARPAS-422 for CC[C@H](CO)Nc1nc(NCc2ccccc2)c2ncn(C(C)C)c2n1 [SELICICLIB] was 9960 nM
